FYI, the data here is from ChEMBL document CHEMBL3045677.

System: Aspergillus versicolor
Assay: Antifungal activity against Aspergillus versicolor ATCC 11730 at 28 degC measured after 72 hr by microdilution method
Assay type: functional
Conditions: ATCC 11730, 72 h
MEASURED_METRIC: MIC (µM)
# unit: µM | format: bare number

Worked examples, 2 compounds total:
[[record]]
smiles_entry = "COc1cc(Cc2nnc(Nc3ccc(C(F)(F)F)cc3)s2)c(S(=O)(=O)N2CCCCC2)cc1OC"
target_under_test = "Aspergillus versicolor"
test_value = 9.2

[[record]]
smiles_entry = "COc1cc(Cc2nnc(Nc3ccc([N+](=O)[O-])cc3)s2)c(S(=O)(=O)N2CCCCC2)cc1OC"
target_under_test = "Aspergillus versicolor"
test_value = 19.3


## Input Quick check: MIC of COc1cc(Cc2nnc(Nc3ccc(Cl)cc3)s2)c(S(=O)(=O)N2CCCC2)cc1OC ?
## Output 20.2

## Input Quick check: MIC of COc1cc(Cc2nnc(Nc3ccc([N+](=O)[O-])cc3)s2)c(S(=O)(=O)N(C)C)cc1OC ?
## Output 20.9

## Input Quick check: MIC of COc1cc(Cc2nnc(Nc3ccccc3)s2)c(S(=O)(=O)N2CCCC2)cc1OC ?
## Output 21.7

====

Test system: Aspergillus niger
Test: Antifungal activity against Aspergillus niger ATCC 6275 at 28 degC measured after 72 hr by microdilution method
Assay type: functional
Conditions: ATCC 6275, 72 h
MEASURED_METRIC: MFC (µM)
# unit: µM | format: bare number

Worked examples, 10 compounds total:
[[record]]
compound = "c1ccc(-c2ccc(C(c3ccccc3)n3ccnc3)cc2)cc1 (stereo not given)"
value_unit = "µM"
test_value = 640

[[record]]
compound = "COc1cc(Cc2nnc(Nc3ccccc3)s2)c(S(=O)(=O)N(C)C)cc1OC"
value_unit = "µM"
test_value = 46

[[record]]
compound = "CC(=O)N1CCN(c2ccc(OCC3COC(Cn4ccnc4)(c4ccc(Cl)cc4Cl)O3)cc2)CC1 (stereo not given)"
value_unit = "µM"
test_value = 950

[[record]]
compound = "COc1cc(Cc2nnc(Nc3ccc([N+](=O)[O-])cc3)s2)c(S(=O)(=O)N(C)C)cc1OC"
value_unit = "µM"
test_value = 41.8

[[record]]
compound = "COc1cc(Cc2nnc(Nc3ccc(Cl)cc3)s2)c(S(=O)(=O)N2CCCCC2)cc1OC"
value_unit = "µM"
test_value = 39.4

[[record]]
compound = "COc1cc(Cc2nnc(Nc3ccc([N+](=O)[O-])cc3)s2)c(S(=O)(=O)N2CCCC2)cc1OC"
value_unit = "µM"
test_value = 39.6

[[record]]
compound = "COc1cc(Cc2nnc(Nc3ccc(C(F)(F)F)cc3)s2)c(S(=O)(=O)N(C)C)cc1OC"
value_unit = "µM"
test_value = 39.8

[[record]]
compound = "COc1cc(Cc2nnc(Nc3ccc(C(F)(F)F)cc3)s2)c(S(=O)(=O)N2CCN(C)CC2)cc1OC"
value_unit = "µM"
test_value = 35.8

[[record]]
compound = "COc1cc(Cc2nnc(Nc3ccc(C(F)(F)F)cc3)s2)c(S(=O)(=O)N2CCCCC2)cc1OC"
value_unit = "µM"
test_value = 36.8

[[record]]
compound = "COc1cc(Cc2nnc(Nc3ccc([N+](=O)[O-])cc3)s2)c(S(=O)(=O)N2CCCCC2)cc1OC"
value_unit = "µM"
test_value = 38.6


## Input Quick check: MFC of COc1cc(Cc2nnc(Nc3ccc(Cl)cc3)s2)c(S(=O)(=O)N2CCN(C)CC2)cc1OC ?
## Output 38.2

## Input Quick check: MFC of COc1cc(Cc2nnc(Nc3ccc(C(F)(F)F)cc3)s2)c(S(=O)(=O)N2CCCC2)cc1OC ?
## Output 37.8

## Input Quick check: MFC of COc1cc(Cc2nnc(Nc3ccc(Cl)cc3)s2)c(S(=O)(=O)N2CCCC2)cc1OC ?
## Output 40.4

## Input Quick check: MFC of COc1cc(Cc2nnc(Nc3ccc(Cl)cc3)s2)c(S(=O)(=O)N(C)C)cc1OC ?
## Output 42.6

## Input Quick check: MFC of COc1cc(Cc2nnc(Nc3ccccc3)s2)c(S(=O)(=O)N2CCCC2)cc1OC ?
## Output 43.4

====

Test system: Micrococcus flavus
Experiment: Antibacterial activity against Micrococcus flavus ATCC 10240 at […] degC measured after 24 hr by microdilution method
Format: functional
Details: ATCC 10240, 24 h
# note: boundary value 20 µM maps to condition not met; MIC below it maps to condition met

A selection of reference data follows.
[[record]]
smiles_entry = "COc1cc(Cc2nnc(Nc3ccc([N+](=O)[O-])cc3)s2)c(S(=O)(=O)N2CCCCC2)cc1OC"
label_value = "condition met"

[[record]]
smiles_entry = "COc1cc(Cc2nnc(Nc3ccc(C(F)(F)F)cc3)s2)c(S(=O)(=O)N2CCN(C)CC2)cc1OC"
label_value = "condition met"

[[record]]
smiles_entry = "COc1cc(Cc2nnc(Nc3ccccc3)s2)c(S(=O)(=O)N(C)C)cc1OC"
label_value = "condition met"

[[record]]
smiles_entry = "COc1cc(Cc2nnc(Nc3ccc(C(F)(F)F)cc3)s2)c(S(=O)(=O)N2CCCC2)cc1OC"
label_value = "condition met"

[[record]]
smiles_entry = "CN[C@@H]1[C@H](O[C@H]2[C@H](O[C@H]3[C@H](O)[C@@H](O)[C@H](N=C(N)N)[C@@H](O)[C@@H]3N=C(N)N)O[C@@H](C)[C@]2(O)C=O)O[C@@H](CO)[C@H](O)[C@H]1O"
label_value = "condition not met"


## Input Quick check: MIC of COc1cc(Cc2nnc(Nc3ccc(C(F)(F)F)cc3)s2)c(S(=O)(=O)N2CCCCC2)cc1OC under 20 µM?
## Output condition met

## Input Quick check: MIC of COc1cc(Cc2nnc(Nc3ccc(C(F)(F)F)cc3)s2)c(S(=O)(=O)N(C)C)cc1OC under 20 µM?
## Output condition met

## Input Quick check: MIC of COc1cc(Cc2nnc(Nc3ccc(Cl)cc3)s2)c(S(=O)(=O)N2CCN(C)CC2)cc1OC under 20 µM?
## Output condition met

## Input Quick check: MIC of COc1cc(Cc2nnc(Nc3ccc(Cl)cc3)s2)c(S(=O)(=O)N(C)C)cc1OC under 20 µM?
## Output condition not met

## Input Quick check: MIC of COc1cc(Cc2nnc(Nc3ccccc3)s2)c(S(=O)(=O)N2CCCC2)cc1OC under 20 µM?
## Output condition met

## Input Quick check: MIC of COc1cc(Cc2nnc(Nc3ccc([N+](=O)[O-])cc3)s2)c(S(=O)(=O)N(C)C)cc1OC under 20 µM?
## Output condition not met

## Input Quick check: MIC of CC1(C)S[C@@H]2[C@H](NC(=O)[C@H](N)c3ccccc3)C(=O)N2[C@H]1C(=O)O under 20 µM?
## Output condition not met

====

We begin with a simple list: items and their reported log10(MIC).
Tested on: Aspergillus versicolor
Test: Antifungal activity against Aspergillus versicolor ATCC 11730 at 28 degC measured after 72 hr by microdilution method
Assay type: functional
Conditions: ATCC 11730, 72 h
For clarity, the numbers are log10 values of MIC expressed in µM.

[[record]]
compound = "COc1cc(Cc2nnc(Nc3ccc(Cl)cc3)s2)c(S(=O)(=O)N(C)C)cc1OC"
measured_metric = "log10(MIC)"
test_value = 1.03


## Input Quick check: log10(MIC) of COc1cc(Cc2nnc(Nc3ccc([N+](=O)[O-])cc3)s2)c(S(=O)(=O)N2CCCC2)cc1OC ?
## Output 1.30

## Input Quick check: log10(MIC) of c1ccc(-c2ccc(C(c3ccccc3)n3ccnc3)cc2)cc1 (stereo unspecified) ?
## Output 2.51

====

System: Talaromyces funiculosus
Test: Antifungal activity against Talaromyces funiculosus ATCC 36839 at 28 degC measured after 72 hr by microdilution method
Assay type: functional
Conditions: ATCC 36839, 72 h
MEASURED_METRIC: MFC
The reply should read as a number followed by its unit.

Worked examples, 5 compounds total:
[[record]]
compound = "COc1cc(Cc2nnc(Nc3ccc(C(F)(F)F)cc3)s2)c(S(=O)(=O)N2CCCCC2)cc1OC"
target_under_test = "Talaromyces funiculosus"
measured_metric = "MFC"
test_value = "18.4 µM"

[[record]]
compound = "COc1cc(Cc2nnc(Nc3ccc(Cl)cc3)s2)c(S(=O)(=O)N2CCN(C)CC2)cc1OC"
target_under_test = "Talaromyces funiculosus"
measured_metric = "MFC"
test_value = "38.2 µM"

[[record]]
compound = "COc1cc(Cc2nnc(Nc3ccc([N+](=O)[O-])cc3)s2)c(S(=O)(=O)N(C)C)cc1OC"
target_under_test = "Talaromyces funiculosus"
measured_metric = "MFC"
test_value = "20.9 µM"

[[record]]
compound = "CC(=O)N1CCN(c2ccc(OCC3COC(Cn4ccnc4)(c4ccc(Cl)cc4Cl)O3)cc2)CC1 (stereo not given)"
target_under_test = "Talaromyces funiculosus"
measured_metric = "MFC"
test_value = "950 µM"

[[record]]
compound = "COc1cc(Cc2nnc(Nc3ccc([N+](=O)[O-])cc3)s2)c(S(=O)(=O)N2CCCCC2)cc1OC"
target_under_test = "Talaromyces funiculosus"
measured_metric = "MFC"
test_value = "38.6 µM"


## Input Quick check: MFC of COc1cc(Cc2nnc(Nc3ccc([N+](=O)[O-])cc3)s2)c(S(=O)(=O)N2CCCC2)cc1OC ?
## Output 19.8 µM

## Input Quick check: MFC of COc1cc(Cc2nnc(Nc3ccc(Cl)cc3)s2)c(S(=O)(=O)N(C)C)cc1OC ?
## Output 21.3 µM

## Input Quick check: MFC of COc1cc(Cc2nnc(Nc3ccc(Cl)cc3)s2)c(S(=O)(=O)N2CCCCC2)cc1OC ?
## Output 39.4 µM

## Input Quick check: MFC of COc1cc(Cc2nnc(Nc3ccc(C(F)(F)F)cc3)s2)c(S(=O)(=O)N(C)C)cc1OC ?
## Output 19.9 µM
